Parameter Intestines uptake: see the listing below.
Tested on: LNCaP tumor-bearing mice
assayProcedure: Ex vivo biodistribution in LNCaP tumor-bearing mice
Parameters: species or system mouse
condition: 1 h post-injection
Give the figure together with its unit, number first.

Worked set:
molecule: COc1ccc(CCCC(=O)NCC(=O)N[C@@H](CCCCNC(=O)CN2CCN(CC(=O)[O-])CCN(CC(=O)[O-])CCN(CC(=O)[O-])CC2)C(=O)NC[C@H]2CC[C@H](C(=O)N[C@@H](Cc3c4ccccc4cc4ccccc34)C(=O)NCCCC[C@H](NC(=O)N[C@@H](CSCC(=O)O)C(=O)O)C(=O)O)CC2)cc1.[177Lu+3] [[^177Lu]Lu-HTK04048]
targetUnderTest: LNCaP tumor-bearing mice
Intestines uptake: 1.38 ± 0.22 %ID/g
//
molecule: COc1ccc(CCCC(=O)NCC(=O)N[C@@H](CCCCNC(=O)CN2CCN(CC(=O)[O-])CCN(CC(=O)[O-])CCN(CC(=O)[O-])CC2)C(=O)NC[C@H]2CC[C@H](C(=O)N[C@@H](Cc3c4ccccc4cc4ccccc34)C(=O)NCCCC[C@H](NC(=O)N[C@@H](COCC(=O)O)C(=O)O)C(=O)O)CC2)cc1.[177Lu+3] [[^177Lu]Lu-HTK04028]
targetUnderTest: LNCaP tumor-bearing mice
Intestines uptake: 1.23 ± 0.24 %ID/g
//
molecule: O=C([O-])CN1CCN(CC(=O)[O-])CCN(CC(=O)NCC2CCC(C(=O)NC(Cc3c4ccccc4cc4ccccc34)C(=O)NCCCCC(NC(=O)NC(COCC(=O)O)C(=O)O)C(=O)O)CC2)CCN(CC(=O)[O-])CC1.[68Ga+3] (centres unmarked) [[^68Ga]Ga-HTK03187]
targetUnderTest: LNCaP tumor-bearing mice
Intestines uptake: 0.23 ± 0.05 %ID/g

Notebook: pull reported Intestines uptake for LNCaP tumor-bearing mice, entry O=C([O-])CN1CCN(CC(=O)[O-])CCN(CC(=O)NCC2CCC(C(=O)NC(Cc3c4ccccc4cc4ccccc34)C(=O)NCCCCC(NC(=O)NC(CSCC(=O)O)C(=O)O)C(=O)O)CC2)CCN(CC(=O)[O-])CC1.[68Ga+3] (centres unmarked) [[^68Ga]Ga-HTK03177]
0.21 ± 0.02 %ID/g

Now try COc1ccc(CCCC(=O)NCC(=O)N[C@@H](CCCCNC(=O)CN2CCN(CC(=O)[O-])CCN(CC(=O)[O-])CCN(CC(=O)[O-])CC2)C(=O)NC[C@H]2CC[C@H](C(=O)N[C@@H](Cc3c4ccccc4cc4ccccc34)C(=O)NCCCC[C@H](NC(=O)N[C@@H](CCCC(=O)O)C(=O)O)C(=O)O)CC2)cc1.[177Lu+3] [[^177Lu]Lu-HTK03170] .
1.19 ± 0.25 %ID/g

====

Tested on: LNCaP tumor-bearing mice
assayProcedure: Ex vivo biodistribution in LNCaP tumor-bearing mice
Set-up: species or system mouse
condition: 1 h post-injection
I would appreciate it if you labelled entries class 1 when Thyroid uptake is 0.2 %ID/g or higher, otherwise class 0.

See these solved cases before continuing.
compound: O=C([O-])CN1CCN(CC(=O)[O-])CCN(CC(=O)NCC2CCC(C(=O)NC(Cc3c4ccccc4cc4ccccc34)C(=O)NCCCCC(NC(=O)NC(COCC(=O)O)C(=O)O)C(=O)O)CC2)CCN(CC(=O)[O-])CC1.[68Ga+3] (centres unmarked) [[^68Ga]Ga-HTK03187]
targetUnderTest: LNCaP tumor-bearing mice
labelValue: class 0
--
compound: COc1ccc(CCCC(=O)NCC(=O)N[C@@H](CCCCNC(=O)CN2CCN(CC(=O)[O-])CCN(CC(=O)[O-])CCN(CC(=O)[O-])CC2)C(=O)NC[C@H]2CC[C@H](C(=O)N[C@@H](Cc3c4ccccc4cc4ccccc34)C(=O)NCCCC[C@H](NC(=O)N[C@@H](CCCC(=O)O)C(=O)O)C(=O)O)CC2)cc1.[177Lu+3] [[^177Lu]Lu-HTK03170]
targetUnderTest: LNCaP tumor-bearing mice
labelValue: class 1
--
compound: O=C([O-])CN1CCN(CC(=O)[O-])CCN(CC(=O)NCC2CCC(C(=O)NC(Cc3c4ccccc4cc4ccccc34)C(=O)NCCCCC(NC(=O)NC(CSCC(=O)O)C(=O)O)C(=O)O)CC2)CCN(CC(=O)[O-])CC1.[68Ga+3] (centres unmarked) [[^68Ga]Ga-HTK03177]
targetUnderTest: LNCaP tumor-bearing mice
labelValue: class 1
--
compound: COc1ccc(CCCC(=O)NCC(=O)N[C@@H](CCCCNC(=O)CN2CCN(CC(=O)[O-])CCN(CC(=O)[O-])CCN(CC(=O)[O-])CC2)C(=O)NC[C@H]2CC[C@H](C(=O)N[C@@H](Cc3c4ccccc4cc4ccccc34)C(=O)NCCCC[C@H](NC(=O)N[C@@H](CSCC(=O)O)C(=O)O)C(=O)O)CC2)cc1.[177Lu+3] [[^177Lu]Lu-HTK04048]
targetUnderTest: LNCaP tumor-bearing mice
labelValue: class 1

Does the compound COc1ccc(CCCC(=O)NCC(=O)N[C@@H](CCCCNC(=O)CN2CCN(CC(=O)[O-])CCN(CC(=O)[O-])CCN(CC(=O)[O-])CC2)C(=O)NC[C@H]2CC[C@H](C(=O)N[C@@H](Cc3c4ccccc4cc4ccccc34)C(=O)NCCCC[C@H](NC(=O)N[C@@H](COCC(=O)O)C(=O)O)C(=O)O)CC2)cc1.[177Lu+3] [[^177Lu]Lu-HTK04028] have recorded Thyroid uptake that is 0.2 %ID/g or more?
class 1
